# method: Phase I study CXR1002-001: plasma pharmacokinetics (LC-MS/MS)
# Assay type: in vivo, human
# condition notes: human, plasma, oral, 1000 mg, Patient 040, 1000 mg, person, plasma, 843 hr; read-out: Concentration
metric: concentration at 843 h (µM)
All answers are understood in µM, so give the number only.

Problem: Read off the recorded concentration at 843 h for O=C(O)C(F)(F)C(F)(F)C(F)(F)C(F)(F)C(F)(F)C(F)(F)C(F)(F)F [CXR1002]
Solution: 748

----------
# method: Phase I study CXR1002-001: plasma pharmacokinetics (LC-MS/MS)
# Format: in vivo, human
# condition notes: human, plasma, oral, 1000 mg, Patient 040, 1000 mg, person, plasma, 4 hr; read-out: Concentration
metric: concentration at 4 h (µM)
All answers are understood in µM, so give the number only.

Problem: Read off the recorded concentration at 4 h for `O=C(O)C(F)(F)C(F)(F)C(F)(F)C(F)(F)C(F)(F)C(F)(F)C(F)(F)F`
Solution: 190

Cited source for all entries: patent US20130029928A1
